System: E. coli
ASSAY_INFO: In vitro antibacterial assay (MIC), E. coli growth in solution in 96-well plates, plate counting
Assay type: cell-based
CONDITION_DESCRIPTION: E. coli, 24 h exponential growth; pure substances and cranberry control
Description: E. coli growth in solution was measured in 96-well plates. Absence and presence of different concentrations of the test agent during exponential growth determined the MIC (minimal inhibitory concentration) value. E. coli enumeration was by the plate-counting method (ufc) as described above.
RECORDED_METRIC: MIC (minimal inhibitory concentration)

O=C(O)c1ccccc1O = MIC at 5 mg/mL
O=C(O)CNC(=O)c1ccccc1O = MIC at 5 mg/mL

Hey, just so you know, these numbers are from patent US20250152609A1.
